Target: T1, 4H3969-AA
T1 chain: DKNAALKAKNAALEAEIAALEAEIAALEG
Experiment: two-hybrid library CCmax;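 also: natural log of median RNA to DNA barcode read ratio; higher means stronger binding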
Details: mean of both orientations
Give measured interaction score for each item. Keep answers brief.
When you answer, write just the number.

Recorded interaction score of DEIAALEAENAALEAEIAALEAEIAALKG [4H130-AA] , please.
-0.404

Given the binder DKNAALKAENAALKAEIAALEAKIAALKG [4H3782-AA] , what is its reported interaction score?
-0.912

Query (binder): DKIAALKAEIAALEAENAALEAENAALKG [4H2580-AA] ; field requested: interaction score
-1.28

Which interaction score is listed for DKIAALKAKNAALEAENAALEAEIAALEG [4H2961-AA] ?
-1.8

I would be grateful if you could share the reported interaction score for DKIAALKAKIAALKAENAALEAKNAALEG [4H2903-AA] .
-0.566

For the binder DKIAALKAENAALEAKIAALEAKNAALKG [4H2728-AA] , what interaction score is on record?
-1.14

Can you look up the measured interaction score of DKNAALEAEIAALEAKNAALKAEIAALEG [4H3129-AA] for me?
-1.84

What does the data say about its interaction score? Entry: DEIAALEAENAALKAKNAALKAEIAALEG [4H249-AA]
-1.58

Look up interaction score for this binder: DEIAALEAKIAALKAKNAALKAENAALKG [4H380-AA]
-1.28

Look at this binder and give its reported interaction score. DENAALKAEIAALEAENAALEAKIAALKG [4H1558-AA]
-1.28

Quick one: interaction score of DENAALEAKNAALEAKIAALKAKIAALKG [4H1454-AA] ?
2.05

I am curious: what interaction score value has been reported for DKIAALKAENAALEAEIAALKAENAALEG [4H2699-AA] ?
-1.41

Which measured interaction score value corresponds to DKNAALKAEIAALEAEIAALKAENAALEG [4H3595-AA] ?
-1.4

Measured values drawn from paper PMC10397247 for this set.
